The origin of these recorded values is ChEMBL document CHEMBL2062414.

- target: Amine oxidase [flavin-containing] A (Homo sapiens, UniProt P21397)
- Sequence (P21397 whole entry): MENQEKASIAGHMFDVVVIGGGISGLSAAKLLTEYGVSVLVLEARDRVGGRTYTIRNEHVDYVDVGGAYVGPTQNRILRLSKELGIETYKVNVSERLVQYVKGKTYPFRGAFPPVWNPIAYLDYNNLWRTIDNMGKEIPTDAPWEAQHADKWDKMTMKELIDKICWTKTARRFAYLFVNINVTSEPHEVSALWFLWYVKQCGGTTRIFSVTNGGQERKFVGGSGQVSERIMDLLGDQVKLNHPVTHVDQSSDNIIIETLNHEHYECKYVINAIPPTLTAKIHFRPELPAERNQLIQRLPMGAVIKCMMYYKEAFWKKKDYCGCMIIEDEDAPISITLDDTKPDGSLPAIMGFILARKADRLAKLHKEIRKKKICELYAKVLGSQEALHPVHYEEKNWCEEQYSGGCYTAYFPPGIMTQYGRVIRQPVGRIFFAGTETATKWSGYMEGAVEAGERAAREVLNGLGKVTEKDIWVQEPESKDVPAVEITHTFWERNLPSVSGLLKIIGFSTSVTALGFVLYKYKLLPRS
- assay.text: Inhibition of recombinant human MAO-A assessed as inhibition of kynuramine to 4-hydroxyquinoline conversion after 20 mins by fluorometry
Would you kindly list IC50 for each of these compounds?
Write the number in µM without appending the unit.

Hi! What's the reported IC50 for "O=c1ccoc2ccccc12" on Amine oxidase [flavin-containing] A (Homo sapiens, UniProt P21397)?
39.9

Entry "O=c1ccoc2cccc(OCc3ccccc3)c12" please
143

Repeat with "COC(=O)c1coc2ccc(OCc3cccc(Br)c3)cc2c1=O"
6.46

Same again, this time with "O=C(O)c1coc2ccc(OCc3cccc(Br)c3)cc2c1=O"
1.04

// repeat for "O=Cc1coc2ccccc2c1=O" and report
28.9

Then "O=Cc1coc2ccc(OCc3cccc(Br)c3)cc2c1=O" ?
2.2

Another: O=C1CC(O)Oc2ccc(OCc3cccc(Br)c3)cc21 (centres undefined)
1.53

Repeat for the following compound: O=C1CC(O)Oc2cccc(OCc3ccc(Br)cc3)c21 (centres undefined)
60.6

Proceed to "O=c1ccoc2cccc(OCc3ccc(Br)cc3)c12"
52.9

====

- Species on record: Homo sapiens
- assay.text: Selectivity ratio of IC50 for recombinant human MAO-A to IC50 for recombinant human MAO-B
measured.quantity: Ratio IC50

Entry under review: "O=c1ccoc2cccc(OCc3ccccc3)c12" . Reported Ratio IC50?
18

What about this molecule? "COC(=O)c1coc2ccc(OCc3cccc(Br)c3)cc2c1=O"
83

And the next one, "CC(=O)c1cc(OCc2ccc(Br)cc2)ccc1O" ?
17

Can you handle "CC(=O)c1c(O)cccc1OCc1cccc(Br)c1" next?
17

Field entry: "CC(=O)c1c(O)cccc1OCc1ccc(Br)cc1"
53

How about "CC(=O)c1ccc(OCc2cccc(Br)c2)cc1O" ?
3950

Likewise for O=C1CC(O)Oc2cccc(OCc3ccc(Br)cc3)c21 (centres undefined) ?
1.4

# repeat for "CC(=O)c1ccc(OCc2ccc(Br)cc2)cc1O"
569

What about this molecule? "O=Cc1coc2ccccc2c1=O"
1

Repeat with "CC(=O)c1cc(OCc2cccc(Br)c2)ccc1O"
34

Next entry: "O=C(O)c1coc2ccc(OCc3cccc(Br)c3)cc2c1=O"
371

How about "O=c1ccoc2cccc(OCc3ccc(Br)cc3)c12" ?
12

Ok, now "O=Cc1coc2ccc(OCc3cccc(Br)c3)cc2c1=O"
595

Please give the result for "O=c1ccoc2ccccc12" too.
1

====

Record form. Attribute: pIC50. Fill in for each entry.
- target: Amine oxidase [flavin-containing] B (Homo sapiens, UniProt P27338)
- Sequence (P27338 whole entry): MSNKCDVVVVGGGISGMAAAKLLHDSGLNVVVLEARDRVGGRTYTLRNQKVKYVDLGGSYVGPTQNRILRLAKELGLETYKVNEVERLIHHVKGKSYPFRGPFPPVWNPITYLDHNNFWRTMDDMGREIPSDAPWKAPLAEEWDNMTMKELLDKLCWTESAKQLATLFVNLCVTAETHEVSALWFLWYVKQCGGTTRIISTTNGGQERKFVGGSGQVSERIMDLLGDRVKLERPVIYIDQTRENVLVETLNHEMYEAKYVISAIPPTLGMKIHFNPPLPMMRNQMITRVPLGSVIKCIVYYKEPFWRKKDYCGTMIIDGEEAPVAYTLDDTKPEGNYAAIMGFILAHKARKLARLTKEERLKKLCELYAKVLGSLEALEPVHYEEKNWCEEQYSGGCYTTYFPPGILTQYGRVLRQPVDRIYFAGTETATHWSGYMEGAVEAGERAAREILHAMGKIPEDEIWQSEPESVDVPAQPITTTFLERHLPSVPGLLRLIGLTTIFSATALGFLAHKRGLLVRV
- assay.text: Inhibition of recombinant human MAO-B assessed as inhibition of kynuramine to 4-hydroxyquinoline conversion after 20 mins by fluorometry
Value format note: pIC50 is -log10 of concentration (mol/L); just state the number.

For "COC(=O)c1coc2ccc(OCc3cccc(Br)c3)cc2c1=O" , what is its reported pIC50?
7.11

Now this one: "O=c1ccoc2cccc(OCc3ccc(Br)cc3)c12"
5.36

And then "O=Cc1coc2ccc(OCc3cccc(Br)c3)cc2c1=O" , what is it?
8.43

Lookup O=C1CC(O)Oc2cccc(OCc3ccc(Br)cc3)c21 (stereo not drawn)
4.35

Consider next the molecule O=c1ccoc2ccccc12 [CHROMONE] in the same way.
4.26

Next: "O=c1ccoc2cccc(OCc3ccccc3)c12"
5.10

Moving on to the next molecule: "O=C(O)c1coc2ccc(OCc3cccc(Br)c3)cc2c1=O"
8.55

Another: "O=Cc1coc2ccccc2c1=O"
4.63
